target: TSPO; conditions: saturation curve, homologous displacement; binders
parameter.measured: Kd (nM)

molecule: COc1ccccc1CN(C(C)=O)c1cnccc1Oc1ccccc1 [[^3H]PBR28]
test.system: TSPO
units.label: nM
experimental.result: 1.8
